- Target of assay: Serine protease 1 (Homo sapiens, UniProt P07477)
- Sequence (P07477 whole entry): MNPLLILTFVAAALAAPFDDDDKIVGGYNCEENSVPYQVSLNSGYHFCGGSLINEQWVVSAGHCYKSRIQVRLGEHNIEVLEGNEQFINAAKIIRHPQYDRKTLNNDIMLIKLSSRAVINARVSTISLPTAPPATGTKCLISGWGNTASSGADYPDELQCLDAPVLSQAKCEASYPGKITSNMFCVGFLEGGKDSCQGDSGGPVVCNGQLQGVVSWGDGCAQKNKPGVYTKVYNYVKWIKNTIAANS
Where a SMILES comes first, the peptide text is derived from it. [ ]: non-standard residue; d: D form. The star is where a group is joined. dChg = N[C@@H](C(=O)O)C1CCCCC1; dPhg = N[C@@H](C(=O)O)c1ccccc1; Boc = CC(C)(C)OC(=O)*
Reported endpoint: log10(IC50) (log10 of the value in nM)
All values: log10 IC50 [nM].

Recorded log10(IC50), per entry:
Compound	Target of assay	log10(IC50)
N=C(N)NCCC[C@@H](C=O)NC(=O)[C@@H]1CCCN1C(=O)C1CCc2ccccc2N1 (stereo not given in full)	Serine protease 1 (Homo sapiens, UniProt P07477)	2.76
CC(C)(C)OC(=O)N[C@@H](C(=O)N1CCC[C@H]1C(=O)N[C@H](C=O)CCCN=C(N)N)c1ccccc1 (Boc-[dPhg]-Pro-Arg-aldehyde)	Serine protease 1 (Homo sapiens, UniProt P07477)	0.99
C[C@@H](C(=O)N1CCC[C@H]1C(=O)NC(C=O)CCCN=C(N)N)c1ccccc1 (stereo not given in full)	Serine protease 1 (Homo sapiens, UniProt P07477)	2.95
N=C(N)NCCC[C@@H](C=O)NC(=O)[C@@H]1CCCN1C(=O)[C@H]1Cc2ccccc2CN1	Serine protease 1 (Homo sapiens, UniProt P07477)	1.28
CC(C)(C)OC(=O)N[C@H](C(=O)N1CCC[C@H]1C(=O)N[C@H](C=O)CCCN=C(N)N)c1ccc(F)cc1	Serine protease 1 (Homo sapiens, UniProt P07477)	1.38

Kindly give each listed record's log10(IC50).
1. CC(C)(C)OC(=O)N[C@H](Cc1ccccc1)C(=O)N1CCC[C@H]1C(=O)N[C@H](C=O)CCCN=C(N)N
2. CC(C)(C)OC(=O)N[C@@H](C(=O)N1CCC[C@H]1C(=O)N[C@H](C=O)CCCN=C(N)N)c1ccsc1
3. CC(C)(C)OC(=O)N[C@@H](C(=O)N1CCC[C@H]1C(=O)N[C@H](C=O)CCCN=C(N)N)C1CCCCC1 (Boc-[dChg]-Pro-Arg-aldehyde)
4. NC(N)=NCCC[C@@H](C=O)NC(=O)[C@@H]1CCCN1C(=O)[C@H](N)c1ccccc1 (H-[dPhg]-Pro-Arg-aldehyde)
5. CC(C)(C)OC(=O)N[C@@H](C(=O)N1CCC[C@H]1C(=O)NC(C=O)CCCNC(=N)N)c1cccc2ccccc12 (stereo not given in full)

-- reply
1: 1.15; 2: 1.11; 3: 1.11; 4: 1.28; 5: 1.15

Kindly give each listed record's log10(IC50).
1. CC(C)(C)OC(=O)N[C@@H](C(=O)N1CCC[C@H]1C(=O)NC(C=O)CCCN=C(N)N)c1ccc2ccccc2c1 (stereo not given in full)
2. CC(C)(C)OC(=O)N[C@@H](C(=O)N1CCC[C@H]1C(=O)N[C@H](C=O)CCCN=C(N)N)c1ccc(F)cc1

-- reply
1: 0.95; 2: 1.28

---

- Target of assay: Plasminogen (Homo sapiens)
- Sequence (P00747 97-580 limits assumed): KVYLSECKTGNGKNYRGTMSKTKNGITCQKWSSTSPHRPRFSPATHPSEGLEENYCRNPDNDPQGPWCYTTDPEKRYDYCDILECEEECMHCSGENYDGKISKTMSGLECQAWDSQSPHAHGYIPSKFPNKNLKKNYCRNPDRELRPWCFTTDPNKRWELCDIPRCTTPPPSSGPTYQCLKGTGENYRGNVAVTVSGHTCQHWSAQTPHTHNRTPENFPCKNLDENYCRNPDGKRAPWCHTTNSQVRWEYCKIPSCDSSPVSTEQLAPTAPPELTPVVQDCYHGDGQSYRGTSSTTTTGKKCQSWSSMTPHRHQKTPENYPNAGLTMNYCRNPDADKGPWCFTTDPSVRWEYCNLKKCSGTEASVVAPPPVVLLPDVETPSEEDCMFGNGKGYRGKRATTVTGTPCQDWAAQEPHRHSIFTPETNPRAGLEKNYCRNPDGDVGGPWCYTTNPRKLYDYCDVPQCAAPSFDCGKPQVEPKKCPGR
- Sequence (P00747 581-810 limits assumed): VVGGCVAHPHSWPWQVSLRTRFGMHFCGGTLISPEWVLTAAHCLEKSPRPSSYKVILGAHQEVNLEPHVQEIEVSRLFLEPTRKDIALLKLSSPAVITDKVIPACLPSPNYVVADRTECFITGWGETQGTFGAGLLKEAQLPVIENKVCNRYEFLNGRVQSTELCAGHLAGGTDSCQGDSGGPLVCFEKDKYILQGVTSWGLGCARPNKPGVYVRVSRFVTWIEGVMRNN
Where a SMILES comes first, the peptide text is derived from it. [ ]: non-standard residue; d: D form. The star is where a group is joined. dHpg = N[C@@H](C(=O)O)c1ccc(O)cc1; dChg = N[C@@H](C(=O)O)C1CCCCC1; dPhg = N[C@@H](C(=O)O)c1ccccc1; Boc = CC(C)(C)OC(=O)*
Reported endpoint: IC50 (nM)
Answers are plain numbers, in nM.

Recorded IC50, per entry:
Molecule	Value unit	IC50
CC(C)(C)OC(=O)N[C@@H](C(=O)N1CCC[C@H]1C(=O)N[C@H](C=O)CCCN=C(N)N)c1ccccc1 (Boc-[dPhg]-Pro-Arg-aldehyde)	nM	98
CC(C)(C)OC(=O)NC(C(=O)N1CCC[C@H]1C(=O)NC(C=O)CCCN=C(N)N)c1cccc(C(F)(F)F)c1 (stereo partly drawn)	nM	130
CC(C)(C)OC(=O)N[C@H](C(=O)N1CCC[C@H]1C(=O)N[C@H](C=O)CCCN=C(N)N)c1ccc(F)cc1	nM	770

Kindly give each listed record's IC50.
1. CC(C)(C)OC(=O)N[C@H](C(=O)N1CCC[C@H]1C(=O)NC(C=O)CCCNC(=N)N)c1cccc2ccccc12 (stereo partly drawn)
2. CC(C)(C)OC(=O)N[C@@H](C(=O)N1CCC[C@H]1C(=O)N[C@H](C=O)CCCN=C(N)N)c1ccc(O)cc1 (Boc-[dHpg]-Pro-Arg-aldehyde)
3. CC(C)(C)OC(=O)N[C@@H](C(=O)N1CCC[C@H]1C(=O)N[C@H](C=O)CCCN=C(N)N)c1ccc(F)cc1
4. CC(C)(C)OC(=O)N[C@@H](C(=O)N1CCC[C@H]1C(=O)N[C@H](C=O)CCCN=C(N)N)C1CCCCC1 (Boc-[dChg]-Pro-Arg-aldehyde)
5. CC(C)(C)OC(=O)N[C@H](Cc1ccccc1)C(=O)N1CCC[C@H]1C(=O)N[C@H](C=O)CCCN=C(N)N
6. NC(N)=NCCC[C@@H](C=O)NC(=O)[C@@H]1CCCN1C(=O)[C@H](N)c1ccccc1 (H-[dPhg]-Pro-Arg-aldehyde)

-- reply
180
94
85
81
190
910

Kindly give each listed record's IC50.
1. N=C(N)NCCC[C@@H](C=O)NC(=O)[C@@H]1CCCN1C(=O)[C@@H]1NCCc2ccccc21
2. CC(C)(C)OC(=O)N[C@@H](C(=O)N1CCC[C@H]1C(=O)NC(C=O)CCCNC(=N)N)c1cccc2ccccc12 (stereo partly drawn)
3. N=C(N)NCCC[C@@H](C=O)NC(=O)[C@@H]1CCCN1C(=O)C1CCc2ccccc2N1 (stereo partly drawn)
4. C[C@@H](C(=O)N1CCC[C@H]1C(=O)NC(C=O)CCCN=C(N)N)c1ccccc1 (stereo partly drawn)

-- reply
1500
620
15000
41000
